Test system: Hs578T
Assay overview: normalised response (% of control), CellTiter-Glo; higher = more viable cells (100 = DMSO, 0 = benzethonium chloride kill control)
Measurement parameters: incubation time: 72 h
Please provide measured normalised response for the entries that follow.
Please answer using a numeric value trailed by its unit.

1) COc1cc(Nc2ncc(F)c(Nc3ccc4c(n3)N(COP(=O)(O)O)C(=O)C(C)(C)O4)n2)cc(OC)c1OC [Fostamatinib] (2500 nM)    15.1%

Query string: Specify measured normalised response for CO[C@H]1C[C@@H]2CC[C@@H](C)[C@@](O)(O2)C(=O)C(=O)N2CCCC[C@H]2C(=O)O[C@H]([C@H](C)C[C@@H]2CC[C@@H](O)[C@H](OC)C2)CC(=O)[C@H](C)/C=C(\C)[C@@H](O)[C@@H](OC)C(=O)[C@H](C)C[C@H](C)/C=C/C=C/C=C/1C [Sirolimus] (100 nM) .
Result string: 68.8%

====

Would you kindly list normalised viability for each of these compounds?
Tested on: DU-4475
Assay overview: normalised viability (% of control), CellTiter-Blue; higher = more viable cells (about 100 = DMSO control)
Measurement parameters: 30 nM; incubation time: 72 h

1. Cn1nnc2c(C(N)=O)ncn2c1=O [Temozolomide]    95.3%
2. CN1CCN(c2nc(C3=C(c4c[nH]c5ccccc45)C(=O)NC3=O)c3ccccc3n2)CC1    94%
3. C[C@@H]1C[C@H]2[C@@H]3CCC4=CC(=O)C=C[C@]4(C)[C@@]3(F)[C@@H](O)C[C@]2(C)[C@@]1(O)C(=O)CO    86.9%

Hi there! I need normalised viability for each item below, if you can.
1. CC(C)C(=O)Nc1ccc([N+](=O)[O-])c(C(F)(F)F)c1 [Flutamide]
2. CC/C(=C(\c1ccccc1)c1ccc(OCCN(C)C)cc1)c1ccccc1
3. Cc1c(C(=O)Nc2ccc(N3C[C@@H](C)O[C@@H](C)C3)nc2)cccc1-c1ccc(OC(F)(F)F)cc1

Result string:
["85.1%", "95.7%", "112%"]

====

Test system: CAL-85-1
Assay overview: normalised viability (% of control), CellTiter-Blue; higher = more viable cells (about 100 = DMSO control)
Measurement parameters: incubation time: 72 h
Assign normalised viability to each entry below.
Answers are plain numbers, in %.

These solved cases illustrate the format of a correct answer.
1) CC(C)C(=O)Nc1ccc([N+](=O)[O-])c(C(F)(F)F)c1 [Flutamide] (10000 nM)    84.8
2) O=NN(CCCl)C(=O)NC1CCCCC1 [Lomustine] (10000 nM)    77.4
3) C[C@@H](CN1CC(=O)NC(=O)C1)N1CC(=O)NC(=O)C1 [Dexrazoxane] (10000 nM)    93.7

Okay, here is my list. What is normalised viability for each of these?
1. Cc1c(C(=O)Nc2ccc(N3C[C@@H](C)O[C@@H](C)C3)nc2)cccc1-c1ccc(OC(F)(F)F)cc1 [NVP-LDE225] (10000 nM)
2. COc1cc2c(Oc3ccc(NC(=O)C4(C(=O)Nc5ccc(F)cc5)CC4)cc3F)ccnc2cc1OCCCN1CCOCC1 [Foretinib] (1000 nM)
3. NC1(c2ccc(-c3nc4ccn5c(=O)[nH]nc5c4cc3-c3ccccc3)cc2)CCC1 [MK-2206] (1000 nM)

Result string:
1. 98.4
2. 66.8
3. 58.4

====

So I've got a bunch of molecules here, and I need their normalised response values.
Test system: MDA-MB-231
Assay overview: normalised response (% of control), CellTiter-Glo; higher = more viable cells (100 = DMSO, 0 = benzethonium chloride kill control)
Measurement parameters: incubation time: 72 h
Give bare numbers, in %.

1) CCc1cnn2c(NCc3ccc[n+]([O-])c3)cc(N3CCCC[C@H]3CCO)nc12 [Dinaciclib] (10 nM)    28.2

Parameters: items (list). Returns: normalised response for each item.
1. COc1cc2c(Oc3ccc(NC(=O)C4(C(=O)Nc5ccc(F)cc5)CC4)cc3F)ccnc2cc1OCCCN1CCOCC1 [Foretinib] (10 nM)
2. CCN(CC)CCOc1ccc(C(=C(Cl)c2ccccc2)c2ccccc2)cc1 [Clomifene] (100 nM)
3. C[C@@H](C(=O)O)c1ccc(-c2ccccc2)c(F)c1 [Tarenflurbil] (100 nM)
4. NC(=O)NO [Hydroxyurea] (1000 nM)

Result string:
1: 97.7; 2: 106; 3: 97.3; 4: 100

====

System: BT-474
Assay overview: normalised response (% of control), CellTox Green; higher = less cell death (100 = DMSO, 0 = benzethonium chloride kill control)
Measurement parameters: incubation time: 72 h
Reported endpoint: normalised response (%)
One number for each entry, in %.

Known normalised response results, listed for orientation:
1) NC(=O)NO [Hydroxyurea] (100000 nM)    97.4
2) N[C@@H](Cc1ccc(N(CCCl)CCCl)cc1)C(=O)O [Melphalan] (1250 nM)    -13.4
3) Cc1c(N)nc([C@H](CC(N)=O)NC[C@H](N)C(N)=O)nc1C(=O)N[C@H](C(=O)N[C@H](C)[C@@H](O)[C@H](C)C(=O)N[C@H](C(=O)NCCc1nc(-c2nc(C(=O)NCCC[S+](C)C)cs2)cs1)[C@@H](C)O)[C@@H](OC1OC(CO)C(O)C(O)C1OC1OC(CO)C(O)C(OC(N)=O)C1O)c1cnc[nH]1 (stereo not given in full) [Bleomycin] (100 nM)    98.1
4) CC(C)C(=O)Nc1ccc([N+](=O)[O-])c(C(F)(F)F)c1 [Flutamide] (10000 nM)    92.6

For the 3 molecules below, give their normalised response values.
1. CN1CCc2c(c3ccccc3n2Cc2ccc(C(=O)NO)cc2)C1 [Tubastatin A] (1000 nM)
2. CC(C)n1nc(-c2ccc3oc(N)nc3c2)c2c(N)ncnc21 [INK128] (1000 nM)
3. CC/C(=C(\c1ccccc1)c1ccc(OCCN(C)C)cc1)c1ccccc1 [Tamoxifen] (10000 nM)

Result string:
1. 99.2
2. 93.8
3. 9.58

Quick request: normalised response for each listed item, please.
1. Cn1cc(C[C@@H](N)C(=O)O)c2ccccc21 [1-methyl-D-tryptophan] (50 nM)
2. Cn1nnc2c(C(N)=O)ncn2c1=O [Temozolomide] (1000 nM)
3. C[C@@H]1C[C@H]2[C@@H]3CCC4=CC(=O)C=C[C@]4(C)[C@@]3(F)[C@@H](O)C[C@]2(C)[C@@]1(O)C(=O)CO [Dexamethasone] (10000 nM)
4. CCN(CC)CCOc1ccc(C(=C(Cl)c2ccccc2)c2ccccc2)cc1 [Clomifene] (10000 nM)

Result string:
[99.9, 96.5, 94, 5.17]

Lab note: each molecule below needs its normalised response filled in.
1. Cc1cc2c(F)c(Oc3ncnn4cc(OC[C@@H](C)O)c(C)c34)ccc2[nH]1 [Brivanib] (1000 nM)
2. COc1cc2c(Oc3ccc(NC(=O)C4(C(=O)Nc5ccc(F)cc5)CC4)cc3F)ccnc2cc1OCCCN1CCOCC1 [Foretinib] (1000 nM)

Result string:
[97.9, 97.1]

For each entry beneath this line, provide reported normalised response.
1. Cc1cc2c(F)c(Oc3ncnn4cc(OC[C@@H](C)O)c(C)c34)ccc2[nH]1 [Brivanib] (100 nM)
2. CCN(CC)CCOc1ccc(C(=C(Cl)c2ccccc2)c2ccccc2)cc1 [Clomifene] (1000 nM)

Result string:
1: 100; 2: 97.6

====

Can you tell me normalised viability for the items I'm about to list?
System: CAL-148
Assay overview: normalised viability (% of control), CellTiter-Blue; higher = more viable cells (about 100 = DMSO control)
Measurement parameters: incubation time: 72 h
One number for each entry, in %.

1. NC1(c2ccc(-c3nc4ccn5c(=O)[nH]nc5c4cc3-c3ccccc3)cc2)CCC1 [MK-2206] (1000 nM)    36.8

Look up normalised viability for the entries below, preserving their order.
1. COc1cc2c(N3CCN(C(=O)Nc4ccc(OC(C)C)cc4)CC3)ncnc2cc1OCCCN1CCCCC1 [Tandutinib] (1000 nM)
2. NC(=O)c1cccc2cn(-c3ccc([C@@H]4CCCNC4)cc3)nc12 [MK-4827] (10000 nM)
3. CCN(CC)CCOc1ccc(C(=C(Cl)c2ccccc2)c2ccccc2)cc1 [Clomifene] (10000 nM)

Result string:
1. 71.1
2. 59.2
3. 93.4

====

System: Hs578T
Assay overview: normalised response (% of control), CellTox Green; higher = less cell death (100 = DMSO, 0 = benzethonium chloride kill control)
Measurement parameters: incubation time: 72 h
Consider the following molecules; for each one, report its normalised response.
One number for each entry, in %.

1) CO[C@H]1C[C@@H]2CC[C@@H](C)[C@@](O)(O2)C(=O)C(=O)N2CCCC[C@H]2C(=O)O[C@H]([C@H](C)C[C@@H]2CC[C@@H](O)[C@H](OC)C2)CC(=O)[C@H](C)/C=C(\C)[C@@H](O)[C@@H](OC)C(=O)[C@H](C)C[C@H](C)/C=C/C=C/C=C/1C [Sirolimus] (10 nM)    59.7
2) CCCc1cc(C)[nH]c(=O)c1CNC(=O)c1cc(-c2ccnc(N3CCN(C)CC3)c2)cc2c1cnn2C(C)C [GSK343] (1000 nM)    73.9

Query string: Kindly indicate its recorded normalised response. Item: CN1CCc2c(c3ccccc3n2Cc2ccc(C(=O)NO)cc2)C1 [Tubastatin A] (100 nM)
Result string: 110

These measurements were taken from the supplement of paper PMC4862054.
